The measurements presented in this section are drawn from patent US20260132197A1.

- Target entity: T1, wild type human CD47 (Acro Biosystems, cat. no. CD7-H5227) (human, UniProt Q08722 19-139)
- T1 construct: Bought protein used as SPR analyte; also called Human CD47 wt; wild-type CD47
- T1 sequence (Q08722 19-139 limits assumed): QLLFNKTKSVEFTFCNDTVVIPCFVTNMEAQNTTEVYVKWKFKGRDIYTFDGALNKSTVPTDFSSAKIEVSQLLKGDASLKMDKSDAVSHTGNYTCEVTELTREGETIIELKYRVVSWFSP
- Method notes: SPR, IgG captured, CD47 in flow; exp 2;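 further: IgG from HEK293 cell supernatants tested by SPR on a BIAcore T200, C33G mutein prevents IgV homodimers for monovalent affinity, KD derived from association and dissociation rates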
Endpoint label: koff (s⁻¹)
Numbers only, in s⁻¹.

Guide cases for koff, answers given:
Binder: 108VH5.M12 / 108VL1.M5 (antibody, human IgG4 S228P, kappa, V domains shown, Full-length IgG4 (S228P), kappa; also called VH5.M12 VL1.M5) VH: EVQLVQSGAEVKKPGASVKVSCKASGYTFTHHWMHWVRQAPGQGLEWMGMIDASDSETRYAQKFQGRVTMTRDTSTSTVYMELSSLRSEDTAVYYCARLGRYYFDYWGQGTLVTVSS VL: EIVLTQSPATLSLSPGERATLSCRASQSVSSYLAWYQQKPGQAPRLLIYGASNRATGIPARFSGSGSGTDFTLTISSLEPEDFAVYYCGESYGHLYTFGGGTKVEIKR
koff [s⁻¹]: 0.002

Binder: 108VH5.M11 / 108VL1.M5 (antibody, human IgG4 S228P, kappa, V domains shown, Full-length IgG4 (S228P), kappa; also called VH5.M11 VL1.M5) VH: EVQLVQSGAEVKKPGASVKVSCKASGYTFTHHYIHWVRQAPGQGLEWMGMIDASDSETRYAQKFQGRVTMTRDTSTSTVYMELSSLRSEDTAVYYCARLGRYYFDYWGQGTLVTVSS VL: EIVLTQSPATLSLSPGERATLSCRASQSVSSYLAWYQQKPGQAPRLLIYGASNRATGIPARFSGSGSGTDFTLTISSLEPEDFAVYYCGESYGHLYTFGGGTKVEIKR
koff [s⁻¹]: 0.0032

Exam item: Supply recorded koff for 108VH5.M14 / 108VL1.M5 (antibody, human IgG4 S228P, kappa, V domains shown, Full-length IgG4 (S228P), kappa; also called VH5.M14 VL1.M5) VH: EVQLVQSGAEVKKPGASVKVSCKASGYTFTHHWIHWVRQAPGQGLEWMGMIDASDGETRYAQKFQGRVTMTRDTSTSTVYMELSSLRSEDTAVYYCARLGRYYFDYWGQGTLVTVSS VL: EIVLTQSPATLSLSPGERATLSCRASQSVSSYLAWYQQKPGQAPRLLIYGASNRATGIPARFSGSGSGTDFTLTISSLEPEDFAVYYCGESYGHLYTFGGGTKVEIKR here.
Marked response: 0.0018
